B1: ZNF511 (parent)
chain: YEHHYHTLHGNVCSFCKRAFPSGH

Variants of: B1
Test: protein stability index of a GFP-peptide fusion (GPS, HEK-293T) (PSI 1-6); higher = more stable;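 note: lentivirally expressed fusions sorted by FACS into six bins by GFP to DsRed ratio, PSI derived from sequencing read proportions per bin multiplied by bin number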
Conditions: c terminus: a fixed tail appended
Decision: protein stability index >= 2 yields Met, all other cases yield Not met.

sequence chain: YEHHYHTLHGNVCSFCKRAAPSGH [F20A]
class label: Met

sequence chain: YEHHYHTLHGNVYSFCKRAFPSGH [C13Y]
class label: Not met

sequence chain: YEHHYHTLHGNVCSFCKRSFPSGH [A19S]
class label: Met

Challenge: hey, is protein stability index for this one >= 2? YEHHYHTLHGNVCSFCKRAFPFGH [S22F]
Response given: Met

Challenge: hey, is protein stability index for this one >= 2? YEHDYHTLHGNVCSFCKRAFPSGH [H4D]
Response given: Met

Challenge: hey, is protein stability index for this one >= 2? YEHHYHTLHVNVCSFCKRAFPSGH [G10V]
Response given: Not met

Challenge: hey, is protein stability index for this one >= 2? YEHHYHTLHGHVCSFCKRAFPSGH [N11H]
Response given: Met

Challenge: hey, is protein stability index for this one >= 2? YEHHYHTLHGNVCSFCKRARPSGH [F20R]
Response given: Met

Challenge: hey, is protein stability index for this one >= 2? YEHHTHTLHGNVCSFCKRAFPSGH [Y5T]
Response given: Met

Challenge: hey, is protein stability index for this one >= 2? YEHHYHTLHGNVCSFCKRACPSGH [F20C]
Response given: Met

Challenge: hey, is protein stability index for this one >= 2? YEHHYHTLHGNVCSFCKRAFPNGH [S22N]
Response given: Met

Challenge: hey, is protein stability index for this one >= 2? YEHHYHTLHGNVCSKCKRAFPSGH [F15K]
Response given: Met

Challenge: hey, is protein stability index for this one >= 2? YEHHYHTLHGNVLSFCKRAFPSGH [C13L]
Response given: Not met

Challenge: hey, is protein stability index for this one >= 2? YEHHYHTLHGNVISFCKRAFPSGH [C13I]
Response given: Met

src = the supplement of paper PMC10567573
